Values compiled from patent US20220016215A1.

# target.or.system: T1, human GIPR (human, UniProt P48546 22-466)
# T1 sequence (looked up): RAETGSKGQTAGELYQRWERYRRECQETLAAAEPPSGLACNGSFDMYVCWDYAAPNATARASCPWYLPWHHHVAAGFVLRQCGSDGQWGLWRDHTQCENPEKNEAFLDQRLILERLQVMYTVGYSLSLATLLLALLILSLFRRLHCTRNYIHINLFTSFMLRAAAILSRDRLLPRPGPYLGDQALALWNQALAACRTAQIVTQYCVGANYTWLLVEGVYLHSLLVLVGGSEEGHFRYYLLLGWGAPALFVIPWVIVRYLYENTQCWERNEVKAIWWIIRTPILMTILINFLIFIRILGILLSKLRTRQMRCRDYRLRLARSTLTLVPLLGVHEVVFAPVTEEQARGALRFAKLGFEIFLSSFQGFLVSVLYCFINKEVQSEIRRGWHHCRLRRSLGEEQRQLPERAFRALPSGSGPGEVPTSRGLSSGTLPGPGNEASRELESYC
# experiment: cell-based or functional assay
Non-standard residues stand in square brackets, D forms with d. Groups on a side chain read outwards from the residue. No end group written: not given here. *: point of attachment. C15 diacid = O=C(O)CCCCCCCCCCCCCC(=O)*; Aib = CC(C)(N)C(=O)O
result.type: GIPR EC50 nM (A)
Number plus unit, in that order.

Query string: Specify GIPR EC50 nM (A) for Y[dA]EGTFISDYSIAMDKIHQQDFVNWLLAQKGKKNDWKHNIIQ-NH2 [Compound No. 14] and stop.
Result string: 0.001 nM

Query string: Please indicate GIPR EC50 nM (A) recorded for FXEGTFISDYXIAXDKIHQQDFVNWLLAQKGKKNDWKHNITQ (Aib at 2; X* = 1-amino,1-cyclopentane carboxylic acid at 11; Nle at 14; C-terminal -OH) [Compound No. 9]
Result string: 0.004 nM

Query string: Please report GIPR EC50 nM (A) for the following binder: Y[Aib]EGTFISDYSIALDKIHQQDFVNWLLAQK([ethylene glycol-ethylene glycol-C15 diacid])G-OH [Compound No. 31]
Result string: 0.002 nM
